Data provenance is the kinase profiling compilation of Christmann-Franck et al. (2016).

Biological target: PAK7 (human) (UniProt Q9P286)
Sequence (Q9P286 whole entry, looked up): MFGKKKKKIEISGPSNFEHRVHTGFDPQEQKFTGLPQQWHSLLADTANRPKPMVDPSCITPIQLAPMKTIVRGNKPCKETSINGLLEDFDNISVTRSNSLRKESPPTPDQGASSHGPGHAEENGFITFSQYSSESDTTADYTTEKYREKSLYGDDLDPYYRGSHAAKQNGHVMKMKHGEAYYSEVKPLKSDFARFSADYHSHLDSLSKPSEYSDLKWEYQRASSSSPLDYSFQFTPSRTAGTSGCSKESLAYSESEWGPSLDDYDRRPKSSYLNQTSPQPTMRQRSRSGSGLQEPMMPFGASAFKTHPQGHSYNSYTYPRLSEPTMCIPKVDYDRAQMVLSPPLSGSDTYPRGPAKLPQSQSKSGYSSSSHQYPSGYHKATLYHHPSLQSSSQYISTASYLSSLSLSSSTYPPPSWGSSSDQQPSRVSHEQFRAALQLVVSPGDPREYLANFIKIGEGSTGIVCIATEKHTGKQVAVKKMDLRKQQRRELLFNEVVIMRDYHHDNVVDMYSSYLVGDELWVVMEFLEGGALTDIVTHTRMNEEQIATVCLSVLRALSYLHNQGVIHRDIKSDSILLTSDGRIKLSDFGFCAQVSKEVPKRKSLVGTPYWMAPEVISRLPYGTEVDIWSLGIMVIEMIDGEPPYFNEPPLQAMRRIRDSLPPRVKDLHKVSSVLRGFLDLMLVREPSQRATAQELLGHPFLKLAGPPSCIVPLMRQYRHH
Assay: radiometric filter-binding kinase assay, Kinase HotSpot
Conditions: compound 0.5 µM; ATP 10 µM
Entries annotated with measured residual activity
# unit: % | format: bare number

Please review the entries below; each comes with its answer.
COc1cccc(-c2cc(=O)c3ccccc3o2)c1N | 99.7
FC(F)(F)c1ccc(/C=C/c2nc(COc3ccc(CCCCn4ccnn4)cc3)co2)cc1 | 89.4
c1ccc(-c2cnc(Nc3ccc(OCCN4CCCC4)cc3)s2)cc1 | 87.2

Sample `O=S(=O)(NCCNC/C=C/c1ccc(Br)cc1)c1cccc2cnccc12` ; residual activity observed: 91.4

The recorded residual activity for `N#C/C(=C1/Nc2ccccc2S1)c1ccnc(NCCc2cccnc2)n1` is 98.9

====

Biological target: DAPK1 (human) (UniProt P53355)
Test: radiometric filter-binding kinase assay, Kinase HotSpot
Details: compound 0.5 µM; ATP 10 µM
Test Readout: residual activity (%)
# unit: % | format: bare number

Solved entries (count: 2):
O=C(c1ccccc1)c1ccc(N2CCOCC2)cc1O | 92.5
N#CCCc1ccc2c(c1)-c1[nH]c3ccc([N+](=O)[O-])cc3c1CC(=O)N2 | 96.5

Now for a further molecule.
According to the records, this molecule `COc1cccc(-c2cc(=O)c3ccccc3o2)c1N` displays residual activity of 90.9

====

Target: ULK1 (human)
Assay: radiometric filter-binding kinase assay, Kinase HotSpot
Conditions: compound 0.5 µM; ATP 10 µM
Test Readout: residual activity
Param answer (str): number followed by unit.

Example results:
O=C(c1ccccc1)c1ccc(N2CCOCC2)cc1O | 98.9%
Cc1cc(Nc2nc(-c3ccccc3)nc3ccccc23)n[nH]1 | 81.1%
COc1cc2c(cc1OC)-c1[nH]nc(Nc3cccc(F)c3)c1C2 | 103%

Case `Cn1cc(/C=C2\C(=O)Nc3ccc(S(N)(=O)=O)cc32)c2ccccc21` , ULK1 (human), residual activity recorded as 27.5%

Param item: `COc1cc2ncnc(Nc3ccc(O)c(Br)c3)c2cc1OC` ; param system: ULK1 (human); output residual activity: 87.2%

Item: `O=c1[nH]c2ccccc2n1C1CCN(Cc2ccc(-c3nc4cc5[nH]cnc5cc4nc3-c3ccccc3)cc2)CC1` | System: ULK1 (human) | residual activity: 96.7%

Case `COc1cc2c(Nc3ccc(Br)cc3F)ncnc2cc1OCC1CCN(C)CC1` , ULK1 (human), residual activity recorded as 95.7%

// residual activity (ULK1 (human)) for `N#CCCc1ccc2c(c1)-c1[nH]c3ccc([N+](=O)[O-])cc3c1CC(=O)N2` = 94.2%

====

Target: ITK (human) (UniProt Q08881)
Sequence (Q08881 whole entry, looked up): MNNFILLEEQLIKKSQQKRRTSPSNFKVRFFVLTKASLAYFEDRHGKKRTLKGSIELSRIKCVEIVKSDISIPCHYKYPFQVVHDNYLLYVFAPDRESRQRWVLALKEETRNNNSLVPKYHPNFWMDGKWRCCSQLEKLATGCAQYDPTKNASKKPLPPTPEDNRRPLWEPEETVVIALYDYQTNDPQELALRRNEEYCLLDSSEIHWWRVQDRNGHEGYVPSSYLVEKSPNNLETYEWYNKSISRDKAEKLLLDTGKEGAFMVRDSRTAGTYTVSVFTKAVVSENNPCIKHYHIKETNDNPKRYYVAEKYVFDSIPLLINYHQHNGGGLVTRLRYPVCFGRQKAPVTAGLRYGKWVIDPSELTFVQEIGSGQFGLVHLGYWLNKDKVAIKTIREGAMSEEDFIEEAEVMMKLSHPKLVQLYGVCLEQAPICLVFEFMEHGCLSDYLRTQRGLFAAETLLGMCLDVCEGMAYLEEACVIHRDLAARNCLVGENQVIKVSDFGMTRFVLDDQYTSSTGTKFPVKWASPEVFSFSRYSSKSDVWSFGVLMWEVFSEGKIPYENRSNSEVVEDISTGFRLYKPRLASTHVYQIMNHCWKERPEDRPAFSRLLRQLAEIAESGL
Assay: radiometric filter-binding kinase assay, Kinase HotSpot
Details: compound 0.5 µM; ATP 10 µM
Items are presented alongside their recorded residual activity.
Express it in %; write the number only.

O=C(O)c1ccc2c3c1cccc3c(=O)n1c3ccccc3nc21 | 97.7
N#CCCc1ccc2c(c1)-c1[nH]c3ccc([N+](=O)[O-])cc3c1CC(=O)N2 | 99.9
O=c1[nH]c2ccccc2n1C1CCN(Cc2ccc(-c3nc4cc5[nH]cnc5cc4nc3-c3ccccc3)cc2)CC1 | 99.8
FC(F)(F)c1ccc(/C=C/c2nc(COc3ccc(CCCCn4ccnn4)cc3)co2)cc1 | 102
O=C(c1ccccc1)c1ccc(N2CCOCC2)cc1O | 99.5
O=S(=O)(NCCNC/C=C/c1ccc(Br)cc1)c1cccc2cnccc12 | 86.8
Cn1cc(/C=C2\C(=O)Nc3ccc(S(N)(=O)=O)cc32)c2ccccc21 | 21.4
c1ccc(-c2cnc(Nc3ccc(OCCN4CCCC4)cc3)s2)cc1 | 85.2

The molecule `O=c1cc(N2CCOCC2)oc2c(-c3ccccc3)cccc12` showed residual activity equal to 93.3

Entry `Cc1cc(Nc2nc(-c3ccccc3)nc3ccccc23)n[nH]1` , residual activity reported as 45.4

The molecule listed as `CCOc1cc2ncnc(Nc3cccc(Br)c3)c2cc1OCC` has a reported residual activity of 104

====

Biological target: PRKD2 (human)
Test: radiometric filter-binding kinase assay, Kinase HotSpot
Conditions: compound 0.5 µM; ATP 10 µM
Criterion: residual activity meeting or surpassing 90%. Met: true (1). Not met: false (0).

Past entries and their recorded results:
O=C(O)c1ccc2c3c1cccc3c(=O)n1c3ccccc3nc21 | false (0)
CCc1nc(-c2ccc(OC)cc2)[nH]c1-c1ccncc1 | true (1)
COc1cccc(-c2cc(=O)c3ccccc3o2)c1N | true (1)

Is residual activity at least 90%? Consider `N#Cc1c(NC(=O)c2cccc3ccccc23)sc2c1CCCC2` true (1)

State whether the measured residual activity reaches 90%, counting equality as reaching it, for `Nc1ncnc2c1cnn2-c1ccccc1` true (1)

Please check the record `N#C/C(=C1/Nc2ccccc2S1)c1ccnc(NCCc2cccnc2)n1` and state if its residual activity is at or above 90%. false (0)

Form field: residual activity at least 90%? Entry: `O=c1c2ccccc2[nH]c(=S)n1CCN1CCC(=C(c2ccc(F)cc2)c2ccc(F)cc2)CC1` true (1)

====

Molecular target: UniProtKB Q14680
Sequence (Q14680 whole entry, looked up): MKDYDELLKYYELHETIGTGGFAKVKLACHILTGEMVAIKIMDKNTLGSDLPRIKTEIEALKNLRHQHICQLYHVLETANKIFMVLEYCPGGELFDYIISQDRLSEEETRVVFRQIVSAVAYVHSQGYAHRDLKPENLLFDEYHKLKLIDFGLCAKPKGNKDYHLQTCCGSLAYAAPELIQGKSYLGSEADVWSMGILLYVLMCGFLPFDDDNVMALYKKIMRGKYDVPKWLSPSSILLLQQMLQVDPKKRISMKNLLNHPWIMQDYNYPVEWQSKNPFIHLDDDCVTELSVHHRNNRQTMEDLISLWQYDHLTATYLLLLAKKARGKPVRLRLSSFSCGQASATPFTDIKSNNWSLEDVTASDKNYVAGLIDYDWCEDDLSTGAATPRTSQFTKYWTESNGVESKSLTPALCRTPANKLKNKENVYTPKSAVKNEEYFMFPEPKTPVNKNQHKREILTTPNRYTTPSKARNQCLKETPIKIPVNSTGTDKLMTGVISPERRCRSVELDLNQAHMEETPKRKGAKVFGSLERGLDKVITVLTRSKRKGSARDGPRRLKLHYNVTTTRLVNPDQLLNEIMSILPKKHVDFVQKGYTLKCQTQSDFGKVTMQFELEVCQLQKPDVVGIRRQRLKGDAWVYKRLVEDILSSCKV
Assay: radiometric filter-binding kinase assay, Kinase HotSpot
Details: compound 0.5 µM; ATP 10 µM
Test Readout: residual activity (%)
Quick reminder: number only, in %, skip the unit.

The cases that follow already have their residual activity on record.
Nc1ncnc2c1cnn2-c1ccccc1 | 92.6
N#C/C(=C1/Nc2ccccc2S1)c1ccnc(NCCc2cccnc2)n1 | 91.7
CCOc1cc2ncnc(Nc3cccc(Br)c3)c2cc1OCC | 88.1

# input for lookup
Per the record, `N#CCCc1ccc2c(c1)-c1[nH]c3ccc([N+](=O)[O-])cc3c1CC(=O)N2` has residual activity of 88.6

====

Target: SIK2 (human) (UniProt Q9H0K1)
Sequence (Q9H0K1 whole entry, looked up): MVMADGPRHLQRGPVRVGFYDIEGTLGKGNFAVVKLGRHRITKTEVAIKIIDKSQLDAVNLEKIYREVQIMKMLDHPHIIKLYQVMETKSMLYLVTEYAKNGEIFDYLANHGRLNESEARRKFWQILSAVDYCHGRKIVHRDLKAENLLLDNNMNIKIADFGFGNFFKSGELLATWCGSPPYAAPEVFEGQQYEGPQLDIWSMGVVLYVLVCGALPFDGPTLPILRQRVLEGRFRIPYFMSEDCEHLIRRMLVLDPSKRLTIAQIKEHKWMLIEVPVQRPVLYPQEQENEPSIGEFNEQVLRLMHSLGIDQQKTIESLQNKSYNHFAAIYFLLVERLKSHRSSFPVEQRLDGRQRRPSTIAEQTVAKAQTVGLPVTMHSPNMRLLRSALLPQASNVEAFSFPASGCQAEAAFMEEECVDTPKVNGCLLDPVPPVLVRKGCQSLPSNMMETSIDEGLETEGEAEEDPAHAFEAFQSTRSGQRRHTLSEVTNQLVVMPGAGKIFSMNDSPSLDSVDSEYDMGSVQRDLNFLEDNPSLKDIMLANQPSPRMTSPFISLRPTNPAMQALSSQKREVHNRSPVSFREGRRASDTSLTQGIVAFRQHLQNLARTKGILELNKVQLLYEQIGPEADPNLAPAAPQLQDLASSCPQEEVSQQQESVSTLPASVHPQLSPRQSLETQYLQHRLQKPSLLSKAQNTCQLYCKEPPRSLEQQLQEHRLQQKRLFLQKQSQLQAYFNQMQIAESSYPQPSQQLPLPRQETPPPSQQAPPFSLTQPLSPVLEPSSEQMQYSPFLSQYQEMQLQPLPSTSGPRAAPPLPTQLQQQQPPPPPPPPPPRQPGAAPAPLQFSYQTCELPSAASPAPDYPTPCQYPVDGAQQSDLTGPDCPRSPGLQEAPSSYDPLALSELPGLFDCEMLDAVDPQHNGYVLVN
Assay: radiometric filter-binding kinase assay, Kinase HotSpot
Details: compound 0.5 µM; ATP 10 µM
Catalogue of residual activity readings, one per entry.
Return type: number; implicit unit %.

COc1cccc(-c2cc(=O)c3ccccc3o2)c1N | 102
O=C(c1ccccc1)c1ccc(N2CCOCC2)cc1O | 100
O=c1cc(N2CCOCC2)oc2c(-c3ccccc3)cccc12 | 96.8
O=C(O)c1ccc2c3c1cccc3c(=O)n1c3ccccc3nc21 | 92.8

Next:
`Cc1cc(Nc2nc(-c3ccccc3)nc3ccccc23)n[nH]1` has a reported residual activity of 99.6

====

Biological target: DMPK (human)
Experiment: radiometric filter-binding kinase assay, Kinase HotSpot
Conditions: compound 0.5 µM; ATP 10 µM
Test Readout: residual activity (%)
The figure you give is taken to be in %; do not add the unit.

Please review the following examples before continuing.
O=C1NC(=O)c2c1c1c3ccccc3[nH]c1c1[nH]c3cc(Br)ccc3c21 | 104
COc1cc2ncnc(Nc3ccc(O)c(Br)c3)c2cc1OC | 101
CCOc1cc2ncnc(Nc3cccc(Br)c3)c2cc1OCC | 102
O=C(c1ccccc1)c1ccc(N2CCOCC2)cc1O | 98.9

Next up:
So for `O=c1[nH]c2ccccc2n1C1CCN(Cc2ccc(-c3nc4cc5[nH]cnc5cc4nc3-c3ccccc3)cc2)CC1` , the logged residual activity turned out to be 98

====

Readings of residual activity for the listed compounds
Target: UniProt Q96SB4
Sequence (Q96SB4 whole entry, looked up): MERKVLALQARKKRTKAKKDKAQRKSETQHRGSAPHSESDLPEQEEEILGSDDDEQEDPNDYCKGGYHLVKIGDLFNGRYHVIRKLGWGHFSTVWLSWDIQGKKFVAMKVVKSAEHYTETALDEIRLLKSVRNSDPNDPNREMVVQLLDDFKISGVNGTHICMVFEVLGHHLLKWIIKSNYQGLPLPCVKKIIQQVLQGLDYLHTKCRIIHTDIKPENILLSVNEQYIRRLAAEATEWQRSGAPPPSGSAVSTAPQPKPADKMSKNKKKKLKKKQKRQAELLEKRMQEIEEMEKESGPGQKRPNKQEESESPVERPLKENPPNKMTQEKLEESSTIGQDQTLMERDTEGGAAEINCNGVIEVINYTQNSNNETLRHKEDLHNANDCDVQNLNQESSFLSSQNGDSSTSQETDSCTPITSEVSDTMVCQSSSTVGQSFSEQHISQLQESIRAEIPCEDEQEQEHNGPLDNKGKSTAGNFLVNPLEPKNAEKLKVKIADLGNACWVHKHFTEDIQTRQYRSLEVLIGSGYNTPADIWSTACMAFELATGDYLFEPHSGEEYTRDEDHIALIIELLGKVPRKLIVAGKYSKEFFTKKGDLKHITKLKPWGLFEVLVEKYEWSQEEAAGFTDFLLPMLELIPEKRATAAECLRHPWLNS
Test: radiometric filter-binding kinase assay, Kinase HotSpot
Settings: compound 0.5 µM; ATP 10 µM
Give the value, in units of %, as a plain number.

CCOc1cc2ncnc(Nc3cccc(Br)c3)c2cc1OCC | 102

Value of measured residual activity for the entry `O=C1NC(=O)c2c1c1c3ccccc3[nH]c1c1[nH]c3cc(Br)ccc3c21` : 86.4

get_value(item= `Cc1cc(Nc2nc(-c3ccccc3)nc3ccccc23)n[nH]1` , readout=residual activity) returns 90.1

====

Target: PKN1 (human) (UniProt Q16512)
Sequence (Q16512 whole entry, looked up): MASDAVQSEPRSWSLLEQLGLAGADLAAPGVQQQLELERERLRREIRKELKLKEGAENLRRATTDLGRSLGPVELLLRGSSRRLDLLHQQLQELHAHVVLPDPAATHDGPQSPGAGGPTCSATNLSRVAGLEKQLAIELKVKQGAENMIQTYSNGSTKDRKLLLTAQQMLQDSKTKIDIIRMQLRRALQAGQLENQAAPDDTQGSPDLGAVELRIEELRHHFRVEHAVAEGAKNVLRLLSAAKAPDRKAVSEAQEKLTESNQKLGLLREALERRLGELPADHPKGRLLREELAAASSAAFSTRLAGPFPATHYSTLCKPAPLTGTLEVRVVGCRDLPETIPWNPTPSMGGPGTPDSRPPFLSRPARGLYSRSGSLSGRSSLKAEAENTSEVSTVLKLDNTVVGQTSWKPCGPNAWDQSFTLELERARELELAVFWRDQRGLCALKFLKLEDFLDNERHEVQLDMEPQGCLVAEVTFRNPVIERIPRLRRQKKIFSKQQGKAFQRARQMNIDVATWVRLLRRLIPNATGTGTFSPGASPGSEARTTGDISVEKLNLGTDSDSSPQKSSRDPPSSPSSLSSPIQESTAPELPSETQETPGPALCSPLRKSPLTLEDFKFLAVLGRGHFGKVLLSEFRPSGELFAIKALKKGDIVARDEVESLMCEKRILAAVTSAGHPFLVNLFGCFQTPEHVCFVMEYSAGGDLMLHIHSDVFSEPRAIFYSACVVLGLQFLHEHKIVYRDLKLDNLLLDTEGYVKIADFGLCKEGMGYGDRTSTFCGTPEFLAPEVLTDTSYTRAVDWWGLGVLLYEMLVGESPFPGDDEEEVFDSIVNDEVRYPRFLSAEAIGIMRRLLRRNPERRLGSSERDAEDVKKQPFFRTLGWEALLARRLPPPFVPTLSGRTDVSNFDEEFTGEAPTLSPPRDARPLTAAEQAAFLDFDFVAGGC
Assay: radiometric filter-binding kinase assay, Kinase HotSpot
Conditions: compound 0.5 µM; ATP 10 µM
Test Readout: residual activity (%)
Only the number, expressed in %, is required.

COc1cc2c(cc1OC)-c1[nH]nc(Nc3cccc(F)c3)c1C2 | 106
N#C/C(=C1/Nc2ccccc2S1)c1ccnc(NCCc2cccnc2)n1 | 96.3
O=c1c2ccccc2[nH]c(=S)n1CCN1CCC(=C(c2ccc(F)cc2)c2ccc(F)cc2)CC1 | 103
CCCCc1c(-c2ccc(O)cc2)[nH]c2nccnc12 | 90.3
O=C1NC(=O)c2c1c1c3ccccc3[nH]c1c1[nH]c3cc(Br)ccc3c21 | 66
c1ccc(-c2cnc(Nc3ccc(OCCN4CCCC4)cc3)s2)cc1 | 94.8
O=c1c(-c2ccc(F)cc2)c(-c2ccncc2)[nH]n1-c1ccc(Cl)cc1 | 92.4
O=C1NC(=O)c2cc(Nc3ccc(F)cc3)c(Nc3ccc(F)cc3)cc21 | 97.7
Cc1cc(Nc2nc(-c3ccccc3)nc3ccccc23)n[nH]1 | 89.9
N#CCCc1ccc2c(c1)-c1[nH]c3ccc([N+](=O)[O-])cc3c1CC(=O)N2 | 78

Record `COc1cc2c(N3CCN(C(=O)Nc4ccc(OC(C)C)cc4)CC3)ncnc2cc1OCCCN1CCCCC1` has PKN1 (human) (UniProt Q16512) residual activity equal to 108
